Tested on: H9c2 cardiomyocytes, 2-deoxyglucose stress, ATP luminescence, 2 h
Test: H9c2 cell survival under 2-deoxyglucose stress – uHTS hits, dose response (AID 588780)
Calls of active or inactive are those of the source.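 Rule for the calls: active = compounds whose fitted half-maximal concentration in the cell-protection dose series is at or below a set limit; inactive = the rest.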
Respond using exactly one of the listed classes: t = active, f = inactive

mol: Cc1ccc(OCCOC(=O)CCc2nc3ccccc3c(=O)[nH]2)cc1
assigned-category: f

mol: CCCCn1nc(NC(=O)c2cccs2)c2cc3cc(OC)ccc3nc21
assigned-category: f

Query: Which result was noted for this molecule in the test: "O=C(c1cc(-c2cccnc2)nc2ccc(Br)cc12)N1CCN(c2ncccn2)CC1"
Reply: t

Query: Hi, sorry to bother you, what did the test record for "CN(C)S(=O)(=O)c1cccc(NC(=O)COC(=O)c2ccc([N+](=O)[O-])o2)c1" ?
Reply: f

Query: Look up the recorded call for "COc1cccc(-c2nnc(NC(=O)c3ccc(S(=O)(=O)N(CC(C)C)CC(C)C)cc3)o2)c1" in this test.
Reply: f

Query: For this molecule, state the assay outcome: "COc1cccc(/C=N/NC(=O)c2oc3nc(-c4ccccc4)cc(-c4ccco4)c3c2N)c1"
Reply: f

====

System: H9c2 cardiomyocytes, 2-deoxyglucose stress, ATP luminescence, 2 h
Experiment: H9c2 cell survival under 2-deoxyglucose stress – uHTS hits, dose response (AID 588780)
Calls of active or inactive are those of the source.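 Rule for the calls: active = compounds whose fitted half-maximal concentration in the cell-protection dose series is at or below a set limit; inactive = the rest.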
Tick one outcome: active, inactive

Reference set, count: 5
compound: COc1ccc(-n2cc(-c3ccccc3)c3c(N4CCOCC4)ncnc32)cc1
assigned-category: inactive
//
compound: O=C(OCc1nnc(-c2ccccc2)o1)c1ccc([N+](=O)[O-])s1
assigned-category: active
//
compound: O=c1cc(CSc2nc3ccccc3c(=O)[nH]2)c2ccc(O)cc2o1
assigned-category: inactive
//
compound: Cc1c(N=Cc2cc(Br)cc(Br)c2O)cccc1C(=O)O
assigned-category: inactive
//
compound: COc1cc(C(=O)N/N=C/c2ccc(OC(=O)c3cccc(C)c3)c(OC)c2)ccc1O
assigned-category: inactive

Query: Check the results log: what was the call for "CC(=O)NCc1ccc(-c2csc(NC(=O)CCc3nc4ccccc4c(=O)[nH]3)n2)s1" ?
Reply: inactive

Query: Tell me the recorded outcome of this test for "O=C(OCC(=O)N1CCCCCC1)c1n[nH]c(=O)c2ccccc12" .
Reply: inactive

Query: Which outcome did this test record for the compound CC(OC(=O)CCc1nc2ccccc2c(=O)[nH]1)C(=O)NC1CCCC1 (configuration not stated) ?
Reply: inactive

Query: How was CCOC(=O)C(C)Oc1ccc(C2NC(=O)NC(C)=C2C(C)=O)cc1Br (configuration not stated) classified in this test?
Reply: inactive

Query: Which outcome was assigned to "CN(CC(=O)Nc1cccc(F)c1)C(=O)CCc1nc2ccccc2c(=O)[nH]1" in this test?
Reply: inactive

Query: Tell me the recorded outcome of this test for "O=C(CCc1nc2ccccc2c(=O)[nH]1)N1CCN(c2ccc(F)cc2)CC1" .
Reply: inactive

Query: Give the logged outcome of this assay for the following compound: "CS(=O)(=O)c1ccc(-c2cnc3c(NC=O)cc(-c4ccsc4)cn23)cc1"
Reply: inactive

Query: Field: outcome | Entry: "CCOc1ccc(S(=O)(=O)N(C)CCO)cc1-c1nc2c(C(C)(C)C)nn(C)c2c(=O)[nH]1"
Reply: active

Query: Test call for this compound, please: "Cc1ccc(C=NNc2nc3c([nH]2)c(=O)n(C)c(=O)n3C)cc1"
Reply: active

Query: Give the logged outcome of this assay for the following compound: Cc1c(C(=O)NCC2COc3ccccc3O2)oc2ccc(S(=O)(=O)N3CCOCC3)cc12 (configuration not stated)
Reply: inactive

Query: recorded result category for "N#CCCSc1ccccc1NC(=O)c1cc(=O)c2ccccc2o1" in this test
Reply: inactive

Query: Write down the call the test reported for this compound. Item: "Cn1c(=O)n(CCc2ccccc2)c(=O)c2c1nc1n2CCCN1Cc1ccccc1"
Reply: active

Query: # lookup: test call for "CC1(C)Cc2c(C#N)c(SCc3nc4ccccc4[nH]3)nc(N3CCOCC3)c2CO1"
Reply: inactive

====

Measured IC50 of individual entries
Tested on: H9c2 cardiomyocytes, 2-deoxyglucose stress, ATP luminescence, 2 h
Test: H9c2 cell survival under 2-deoxyglucose stress – uHTS hits, dose response (AID 588780)
Activity calls are given as the source filed them.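 Rule for the calls: active = compounds whose fitted half-maximal concentration in the cell-protection dose series is at or below a set limit; inactive = the rest.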

molecule: O=C1N[C@H]2CC=C[C@H]2Nc2ccccc21
result-value: > 79 µM (inactive)

molecule: Cc1ccc(-c2nn3c(C)nnc3c3ccccc23)cc1S(=O)(=O)NC(C)c1ccccc1 (stereo unspecified)
result-value: > 79 µM (inactive)

molecule: CCN(CC)CCn1c(NC(=O)c2ccc(Cl)cc2)nc2ccccc21
result-value: > 79 µM (inactive)

molecule: Cc1nc(N2CCN(c3ccccn3)CC2)c2c(C)c(C(=O)Nc3ccccc3F)sc2n1
result-value: 10.5 µM

molecule: CN(C)N(Cc1ccccc1)C(=O)C(O)(c1ccccc1)c1ccccc1
result-value: > 79 µM (inactive)

molecule: O=P(Nc1ccccc1)(Oc1ccccc1)Oc1ccccc1
result-value: > 79 µM (inactive)

molecule: Cc1sc2nc(CSCC(=O)N(C)c3ccccc3)[nH]c(=O)c2c1C
result-value: 29.8 µM

molecule: Oc1c(Br)cc(Br)cc1C=Nc1cccc2ncccc12
result-value: 27.3 µM

molecule: Cc1cc(C)cc(N(CCC#N)C(=O)COC(=O)Cn2[nH]c(=O)c3ccccc3c2=O)c1
result-value: > 79 µM (inactive)

molecule: CCn1cc(C(=O)Nc2cccc(NC(C)=O)c2)c2cc(OC)c(OC)cc2c1=O
result-value: > 79 µM (inactive)

Moving on to the next molecule.
Query: For the molecule "CCn1c(SCC(=O)Nc2ccccc2N2CCCCC2)nc2c1c(=O)n(C)c(=O)n2C" , give its measured IC50 value.
Reply: 12.6 µM

====

System: H9c2 cardiomyocytes, 2-deoxyglucose stress, ATP luminescence, 2 h
Assay: H9c2 cell survival under 2-deoxyglucose stress – uHTS hits, dose response (AID 588780)
Calls of active or inactive are those of the source.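 The calls were made as follows: active = compounds whose fitted half-maximal concentration in the cell-protection dose series is at or below a set limit; inactive = the rest.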
Response enum: active, inactive

molecule: C#Cc1cc(N2CCN(C(=O)c3ccoc3)CC2)n2nc(-c3cccc(Cl)c3)cc2n1
assigned-category: inactive
//
molecule: Cn1c(=O)n(CCc2ccccc2)c(=O)c2c1nc1n2CCN1Cc1ccco1
assigned-category: active
//
molecule: COc1cc(/C=N/NC(=O)c2ccccc2)ccc1OS(=O)(=O)c1ccccc1
assigned-category: active

Query: Short answer needed: outcome of this test for CC1Cc2ccccc2N1C(=O)COC(=O)c1n[nH]c(=O)c2ccccc12 (stereo not given) ?
Reply: inactive

Query: What outcome does the record of this test show for "CC(C)(C)c1ccc(OCC(=O)Nc2ccc3c4c(cccc24)C(=O)NC3=O)cc1" ?
Reply: inactive

Query: recorded result category for "c1ccc2c(c1)nc(Nc1ccc3c(c1)OCO3)c1nnnn12" in this test
Reply: active

====

Test system: H9c2 cardiomyocytes, 2-deoxyglucose stress, ATP luminescence, 2 h
Assay: H9c2 cell survival under 2-deoxyglucose stress – uHTS hits, dose response (AID 588780)
Active and inactive are the calls of the source.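 The calls were made as follows: active = compounds whose fitted half-maximal concentration in the cell-protection dose series is at or below a set limit; inactive = the rest.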
recorded-endpoint: IC50

Below are worked cases with known answers.
mol: COc1ccc(C(=O)O/N=C(/c2ccccc2)c2ccncc2)cc1OC
result-value: > 79 µM (inactive)
--
mol: O=c1c2ccccc2nc(CSc2ncnc3nc[nH]c23)n1-c1ccc(Cl)c(Cl)c1
result-value: > 79 µM (inactive)

Please find the next compound below.
Query: Retrieve IC50 measured for "CC(=O)c1cccc(Nc2nc3ccccc3n3cnnc23)c1" and print it.
Reply: > 79 µM (inactive)

====

Test system: H9c2 cardiomyocytes, 2-deoxyglucose stress, ATP luminescence, 2 h
Assay: H9c2 cell survival under 2-deoxyglucose stress – uHTS hits, dose response (AID 588780)
Active and inactive are the calls of the source.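 The calls were made as follows: active = compounds whose fitted half-maximal concentration in the cell-protection dose series is at or below a set limit; inactive = the rest.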
Recorded measurements of IC50, one per entry

# count of solved cases: 2
compound: C[C@H](CO)N1C[C@H](C)[C@@H](CN(C)S(=O)(=O)c2cccs2)Oc2ccc(NC(=O)Nc3ccccc3)cc2C1=O
IC50: 28.2 µM
--
compound: CCc1nc2ccc(C(=O)NCc3cccs3)cn2c1N(C)Cc1nccs1
IC50: 22.4 µM

Query: Give H9c2 cardiomyocytes, 2-deoxyglucose stress, ATP luminescence, 2 h IC50 for the following compound: "CCOc1ccc(N(CC(=O)N/N=C/c2ccccn2)S(=O)(=O)c2ccc(Cl)cc2)cc1"
Reply: > 79 µM (inactive)

Query: Fetch value of IC50 on H9c2 cardiomyocytes, 2-deoxyglucose stress, ATP luminescence, 2 h for "CC(=O)c1cccc(-c2cnc3c(NC=O)cc(-c4ccccc4F)cn23)c1" .
Reply: 17.9 µM

Query: State, for H9c2 cardiomyocytes, 2-deoxyglucose stress, ATP luminescence, 2 h, measured IC50 of the compound listed here: "O=C(COC(=O)c1ccccc1C(=O)OCC(=O)NCCc1c[nH]c2ccccc12)NCCc1c[nH]c2ccccc12"
Reply: > 79 µM (inactive)

Query: Provide IC50, recorded with H9c2 cardiomyocytes, 2-deoxyglucose stress, ATP luminescence, 2 h, of "Cc1ccc(-c2n[nH]c(=O)c3ccccc23)cc1S(=O)(=O)Nc1ccccc1"
Reply: > 79 µM (inactive)
